# Tested on: MDA-MB-231 breast
# EXPERIMENT: NCI-60 one-dose screen, 48 h (100 = growth as untreated, 0 = no growth, -100 = all killed)
# CONDITION SUMMARY: 10 µM unless noted
This is part of a sample that, as a whole, favours compounds with a hit. Of some 83,000 tested, about 20% had one in any assay. Active and inactive are the calls of the source. The calls were made as follows: active = growth percent below 10; inactive = the rest.
ASSAY METRIC: growth

See these solved cases before continuing.
COMPOUND	DATA VALUE
Cn1c(N2NC(=O)C(N=Nc3ccc(S(N)(=O)=O)cc3)C2=O)nc(-c2ccco2)c(C#N)c1=O (centres undefined)	93.8% (inactive)
CC(=O)O[C@@H]1C2CCC3C(CC[C@@]4(C)C3CC[C@@H]4C(C)N(C)C)[C@@]2(C)CC[C@@H]1NC(=O)C=C(C)C (some centres undefined)	-10.3% (active)
C=CCn1c(-c2ccc(-c3nc4ccc(C)cc4[nH]3)cc2)n[nH]c1=S	90.7% (inactive)
CCN1Cc2nc3sc(C)c(C)c3c(=O)n2C=C1C	58.3% (inactive)
CC(=O)[C@H]1CCC/C=C/[C@@H]2C[C@H](O)C[C@H]2[C@H](O)/C=C/C(=O)O1	-34.3% (active)
Cc1ccc(-c2csc(NC(=O)CSc3nc(-c4ccccc4)cc(=O)[nH]3)n2)cc1	93.2% (inactive)

-- ask If you can, please state the reported growth value of Nc1n[nH]c2cccc(C#Cc3cccc(C(=O)Nc4cc(CN5CCOCC5)cc(C(F)(F)F)c4)c3)c12 .
-- reply 19.6% (inactive)

-- ask Entry CC(C)(C)c1ccc(NS(=O)(=O)c2ccc3nc(NC(=O)c4cnccn4)[nH]c3c2)cc1 has what growth?
-- reply 50.5% (inactive)

-- ask Name the recorded growth for COc1cc(CC(=O)c2ccc(O)c(OC)c2)ccc1O .
-- reply 88.6% (inactive)

====

# Tested on: OVCAR-3 ovarian
# EXPERIMENT: NCI-60 one-dose screen, 48 h (100 = growth as untreated, 0 = no growth, -100 = all killed)
# CONDITION SUMMARY: 10 µM unless noted
The panel holds about 83,000 compounds, 20% with a hit somewhere; the sample as a whole holds those more often.
Entries and their measured growth follow.
Enter your answer as a number in %; do not include the unit.

-- ask I am curious: what growth value has been reported for N#C/C(=C\c1ccc(Cl)cc1)n1nnc2cc(F)c(F)cc21 ?
-- reply -0.889

-- ask growth lookup needed for COc1cccc(-c2nc3occn3c2-c2ccnc(NCCNS(=O)(=O)c3ccc(C(F)(F)F)cc3)n2)c1 , thanks.
-- reply 96.7

-- ask Reported growth for CC(C)(C)c1cc(/C=N/NC(=O)c2ccccc2NC(=O)c2cccs2)c(O)c(C(C)(C)C)c1 : what is it?
-- reply 6.92

-- ask Which growth reading was recorded for the compound Cn1ccnc1C(=O)/C=C/c1ccc(CC(=O)NC2CCCCC2)cc1 ?
-- reply 27.6

-- ask What growth value was documented for this compound, CCN1CCN(CCNc2nccc(-c3c(-c4cccc(OC)c4)nc4occn34)n2)S1(=O)=O ?
-- reply 107

-- ask growth for Brc1ccc2[nH]cc(-c3cncn3CCc3ccccc3)c2c1 ?
-- reply 36.7

-- ask Query: growth; subject: N#C/C(=C\c1ccccn1)c1nc2cc(Cl)ccc2s1
-- reply 75.4

-- ask What value of growth has been recorded for this entry: CCC(=O)Oc1ccc(/C(=C(\C)c2ccccc2)c2ccc(OCCN3CCCCC3)cc2)cc1
-- reply 84.3

-- ask Given C=C1C(=O)O[C@H]2[C@H]1CC/C(CNC(=O)C(C)c1ccc(CC(C)C)cc1)=C\CC[C@@]1(C)O[C@@H]21 (some centres undefined) , state its recorded growth.
-- reply -87.9

====

# System: K-562 leukemia
# EXPERIMENT: NCI-60 one-dose screen, 48 h (100 = growth as untreated, 0 = no growth, -100 = all killed)
# CONDITION SUMMARY: 10 µM unless noted
# Procedure: Cells are grown in 96 well plates and exposed to the test compound for 48 hours. Compounds are tested at a single concentration, which is 10^-5 M for most compounds. The reported endpoint is percent growth (GI% or GIPRCNT), where numbers from 0 - 100% represent growth inhibition, and numbers from -100% - 0 represent cell death. For example, a value of 40 represents 60% growth inhibition. A value of 0 means no net growth occurred over the course of the experiment. […]
This is part of a sample that, as a whole, favours compounds with a hit. Of some 83,000 tested, about 20% had one in any assay.
One threshold, 20%, splits the recorded growth values: lower ones are criterion met, equal or higher ones are criterion not met.

SMILES TEXT	CLASS
Cc1ccc(S(=O)(=O)NNC(=O)/C(=C\c2ccc(Cl)cc2)c2nc3ccccc3s2)cc1	criterion not met
COC(=O)C1=C(C(=O)ON)[C@@H]2C=C[C@@]1([C@@H](Cc1ccccc1)Nc1ccccc1)O2	criterion met
N/C(=N\C(N)=N\c1nc2ccccc2s1)c1cnccn1	criterion met
CCCOc1ccc(/C=N/Nc2cc(C)nc3ccc(Br)cc23)cc1	criterion met
COc1ccc2nc(-c3ccc(-c4noc(-c5cc(OC)c(OC)c(OC)c5)n4)cc3)[nH]c2c1	criterion met
O=C(Cn1c[n+](CC(=O)c2ccc(-c3ccccc3)cc2)c2ccccc21)Nc1cccc2cccnc12	criterion met

-- ask Given O=C(/C=C/c1ccc(Cl)cc1)c1ccc(NC(=O)N2CCN(c3cc4c(cc3F)c(=O)c(C(=O)O)cn4C3CC3)CC2)cc1 , is recorded growth strictly lower than 20%?
-- reply criterion not met

-- ask Quick check: does C=CCN1C(=O)/C(=C/C(=O)OC)S/C1=N\NC(=O)c1cc2ccc1/C=C\c1ccc(cc1)/C=C\2 have growth under 20%?
-- reply criterion not met

-- ask Could you please tell me whether growth recorded for NC(=NCCCOc1ccc(F)cc1)Nc1ccc(Cl)cc1 is less than 20%?
-- reply criterion not met

====

# System: DU-145 prostate
# EXPERIMENT: NCI-60 one-dose screen, 48 h (100 = growth as untreated, 0 = no growth, -100 = all killed)
# CONDITION SUMMARY: 10 µM unless noted
This is part of a sample that, as a whole, favours compounds with a hit. Of some 83,000 tested, about 20% had one in any assay.
Label 1.0 when growth is at or above 90%; anything below gets 0.0.

# count of solved cases: 6
COMPOUND	MEASURED TARGET	CLASS
COc1cc(/C=N/O)nc(-c2ccccn2)c1	DU-145 prostate	0.0
Nc1c(C(=O)Nc2cccc3cnccc23)sc2nc3c(cc12)C(=O)CCC3	DU-145 prostate	1.0
NS(=O)(=O)c1ccc(CCN2C(=O)C3C(C2=O)C2(Cl)C(Cl)=C(Cl)C3(Cl)C2(Cl)Cl)cc1 (stereo not given)	DU-145 prostate	1.0
CC1=C(C(=O)/C=C/c2c[nH]c3ccccc23)C(c2ccccc2)NC(=S)N1 (stereo not given)	DU-145 prostate	1.0
CCCOC(=O)N[C@H]1CCc2c(Cl)c(OC)c(OC)c(OC)c2-c2ccc(SC)c(=O)cc21	DU-145 prostate	0.0
C=C1C(=O)O[C@H]2[C@H]1CC/C(CNC(=O)/C=C/c1ccccc1)=C\CC[C@@]1(C)O[C@@H]21	DU-145 prostate	0.0

-- ask Answer whether growth of NCCCCCCNc1cc(-c2cccc(OC(F)(F)F)c2)nc2ccc(N3CCCC3)cc12 is greater than or equal to 90%.
-- reply 0.0

-- ask Assess whether reported growth for Cc1nnc2c(Cc3ccccc3)nc3ccccc3n12 sits at 90% or higher.
-- reply 1.0

-- ask Textbook exercise: given the entry CC(=O)Nc1cccc(-c2ccc3c(c2)NC(=O)/C3=C\c2ccc[nH]2)c1 , state whether its growth is greater than or equal to 90%.
-- reply 0.0

-- ask Decide: growth of O=S(=O)(NCCCNc1nccc(-c2c(-c3cccc(F)c3)nc3sccn23)n1)c1cccc2ccccc12 >= 90%?
-- reply 0.0

-- ask # bool: growth of O=C(/C=C/c1c(-c2ccc(Cl)cc2)nn(-c2ccccc2)c1C(F)(F)F)c1ccc(Cl)cc1 >= 90%
-- reply 1.0

-- ask In plain terms: is recorded growth at least 90% for CN(C)CCC(=O)c1ccc([N+](=O)[O-])cc1 ?
-- reply 1.0

-- ask Reported growth reaches at least 90% for Cc1cc2nc3c4cccc(O)c4n(CCN(C)C)c3nc2cc1C ?
-- reply 0.0

-- ask Given the entry C=C(C)[C@@H]1CC[C@]2(C(=O)N[C@@H](Cc3ccccc3)C(=O)OC)CC[C@]3(C)[C@H](CC[C@@H]4[C@@]5(C)CCC(=O)C(C)(C)[C@@H]5CC[C@]43C)[C@@H]12 , answer whether its growth meets or surpasses 90%.
-- reply 1.0

====

# System: MCF7 breast
# EXPERIMENT: NCI-60 one-dose screen, 48 h
# CONDITION SUMMARY: 10 µM unless noted
The panel holds about 83,000 compounds, 20% with a hit somewhere; the sample as a whole holds those more often. Calls of active or inactive are those of the source. How the source made its calls: active means growth percent below 10; inactive means the rest.
Reply using exactly one outcome from true = active, false = inactive

Field: example entries. Status: answers known.
COMPOUND	CLASS
Cc1c(C(=O)NCCC(=O)NO)sc2ncnc(Nc3ccc(NC(=O)Nc4cccc(C(F)(F)F)c4)cc3)c12	false
N#Cc1c(NC(=O)NCc2ccccc2)sc2c1CCCC2	false
O=C(CCN1CCCC1)Nc1ccc2c(NCc3ccccc3)c3ccccc3nc2c1	true
COC(=O)C1=C(C(=O)ON)[C@@H]2C=C[C@@]1([C@@H](Cc1ccccc1)Nc1ccccc1)O2	false
Cc1ccc(NC(=O)Cc2ccc(/C=C/C(=O)c3ncc[nH]3)cc2)cc1	false
CC(C)(C)c1cc(/C=N/NC(=O)c2ccccc2NC(=O)c2cccs2)c(O)c(C(C)(C)C)c1	false

Could you now consider this next compound?
-- ask Recorded test outcome, item O=C(Cn1c[n+](CC(=O)c2ccc([N+](=O)[O-])cc2)c2ccccc21)Nc1cccc2cccnc12
-- reply false
